molecular target: α5β3γ2 GABAA receptors (Ltk cell membranes) (Homo sapiens, UniProt P18507+P31644); construct: membranes; test: Binding activity of test compounds on GABAAR: inhibition of [3H]Ro15-1788 binding; details: GABA α5 Binding Ki Values, inhibition of [3H]Ro15-1788 binding; reported as ranges
Sequence (P31644 32-462): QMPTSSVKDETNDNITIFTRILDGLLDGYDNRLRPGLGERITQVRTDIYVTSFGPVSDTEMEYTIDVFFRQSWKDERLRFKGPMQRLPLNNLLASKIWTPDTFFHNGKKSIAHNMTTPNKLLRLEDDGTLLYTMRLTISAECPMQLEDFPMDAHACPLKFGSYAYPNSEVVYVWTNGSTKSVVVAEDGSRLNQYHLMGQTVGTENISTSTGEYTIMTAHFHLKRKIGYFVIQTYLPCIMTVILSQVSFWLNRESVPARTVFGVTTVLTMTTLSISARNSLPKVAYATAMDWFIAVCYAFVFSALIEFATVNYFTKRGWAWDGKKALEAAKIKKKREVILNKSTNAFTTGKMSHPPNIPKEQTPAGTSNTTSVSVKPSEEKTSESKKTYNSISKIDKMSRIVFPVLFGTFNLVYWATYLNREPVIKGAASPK
Sequence (P28472 26-473 partner): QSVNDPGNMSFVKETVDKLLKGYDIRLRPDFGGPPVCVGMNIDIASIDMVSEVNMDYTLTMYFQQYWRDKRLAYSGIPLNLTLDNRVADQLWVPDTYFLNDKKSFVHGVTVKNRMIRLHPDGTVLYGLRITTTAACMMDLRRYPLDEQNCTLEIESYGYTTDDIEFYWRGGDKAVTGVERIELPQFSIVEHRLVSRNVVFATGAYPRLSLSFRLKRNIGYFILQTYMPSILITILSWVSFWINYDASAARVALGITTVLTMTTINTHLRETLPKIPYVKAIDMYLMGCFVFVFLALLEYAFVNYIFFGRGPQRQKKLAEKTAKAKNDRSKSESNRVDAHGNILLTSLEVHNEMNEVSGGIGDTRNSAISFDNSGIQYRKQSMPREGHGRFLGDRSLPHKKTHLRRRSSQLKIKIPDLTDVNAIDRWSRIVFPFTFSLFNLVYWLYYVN
Sequence (P18507 40-475): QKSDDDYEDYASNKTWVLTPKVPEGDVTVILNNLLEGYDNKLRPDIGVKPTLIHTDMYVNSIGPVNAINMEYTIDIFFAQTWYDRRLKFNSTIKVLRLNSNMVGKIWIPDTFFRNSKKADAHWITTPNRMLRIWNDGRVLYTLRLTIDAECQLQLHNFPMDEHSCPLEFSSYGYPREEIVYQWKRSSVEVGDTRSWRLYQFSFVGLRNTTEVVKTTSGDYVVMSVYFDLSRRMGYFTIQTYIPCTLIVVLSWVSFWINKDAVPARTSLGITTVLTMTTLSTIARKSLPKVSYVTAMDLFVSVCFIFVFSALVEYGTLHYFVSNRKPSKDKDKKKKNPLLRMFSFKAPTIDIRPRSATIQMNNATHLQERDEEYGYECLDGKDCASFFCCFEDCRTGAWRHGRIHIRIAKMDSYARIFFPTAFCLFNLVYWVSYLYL
MEASURED_PARAMETER: Ki

MOLECULE	EXPERIMENTAL_TARGET	Ki
COCc1nnc2n1Cc1c(-c3cnco3)ncn1-c1ccc(Cl)cc1-2	α5β3γ2 GABAA receptors (Ltk cell membranes) (Homo sapiens, UniProt P18507+P31644)	100 to 1000 nM
COc1ccc2c(c1)-n1nnc(CN3CCC(c4ccccc4)CC3)c1Cc1c(C#N)ncn1-2	α5β3γ2 GABAA receptors (Ltk cell membranes) (Homo sapiens, UniProt P18507+P31644)	> 1000 nM
CC(C)c1nc(-c2ncn3c2Cn2c(COc4ccc(F)cc4)nnc2-c2cc(F)ccc2-3)no1	α5β3γ2 GABAA receptors (Ltk cell membranes) (Homo sapiens, UniProt P18507+P31644)	< 100 nM

We now examine a further compound.
Query: Name the reported Ki value associated with the compound `COc1ccc2c(c1)-n1nncc1Cc1c(C#CCc3cccc(F)c3)ncn1-2`
Response: < 100 nM
